Tested on: normal lung fibroblasts (MRC-5)
RUN DESCRIPTION: Antiproliferative assay (MTT reduction, 3 days)
Assay type: cell-based, human
STUDY CONDITIONS: MRC-5 normal fibroblasts, >100 µM considered inactive, read-out: IC50 ± SD, MRC-5
READOUT TYPE: IC50 (µM)
Supply the numeric figure in µM, leaving out any unit text.

Solved entries:
CC(C)c1cc2c3c(c1OC(=O)CCc1cn(CSc4ccccc4)nn1)OC(=O)[C@@]31CCCC(C)(C)[C@@H]1CC2 [Compound 1]
45.1
CC(C)c1cc2c3c(c1OC(=O)CCc1cn(Cc4ccc([N+](=O)[O-])cc4)nn1)OC(=O)C31CCCC(C)(C)C1CC2 (stereo not shown) [Compound 7]
60.6

# evaluate next
**Q:** Requested field: IC50. Item: CC(C)c1cc2c3c(c1OC(=O)CCc1cn(Cc4ccccc4)nn1)OC(=O)[C@@]31CCCC(C)(C)[C@@H]1CC2 [Compound 3]
**A:** 43.4

###

Test system: C. neoformans ATCC 32264
RUN DESCRIPTION: Antifungal broth microdilution (CLSI M27-A3), growth inhibition
Format: cell-based, Cryptococcus neoformans
STUDY CONDITIONS: 3.9 μg∙mL^−1, 48 h
READOUT TYPE: Inhibition percentage against C. neoformans ATCC 32264 (%)
Give a bare numeral; the unit % is implied.

Completed entries (count: 5):
COC(=O)C12CCCC(C)(C)C1CCc1cc(C(C)C)c(OC(=O)CCCc3cn(CSc4ccccc4)nn3)c(OC(=O)CCCc3cn(CSc4ccccc4)nn3)c12 (stereo not drawn) [Compound 10]
0.0
COC(=O)C12CCCC(C)(C)C1CCc1cc(C(C)C)c(OC(=O)CCc3cn(Cc4ccccc4)nn3)c(OC(=O)CCc3cn(Cc4ccccc4)nn3)c12 (stereo not drawn) [Compound 11]
0.0
COC(=O)C12CCCC(C)(C)C1CCc1cc(C(C)C)c(OC(=O)CCc3cn(Cc4ccc(Br)cc4)nn3)c(OC(=O)CCc3cn(Cc4ccc(Br)cc4)nn3)c12 (stereo not drawn) [Compound 13]
5.8
COC(=O)C12CCCC(C)(C)C1CCc1cc(C(C)C)c(OC(=O)CCCc3cn(Cc4ccc(Br)cc4)nn3)c(OC(=O)CCCc3cn(Cc4ccc(Br)cc4)nn3)c12 (stereo not drawn) [Compound 14]
0.0
CC(C)c1cc2c3c(c1OC(=O)CCc1cn(Cc4ccc([N+](=O)[O-])cc4)nn1)OC(=O)C31CCCC(C)(C)C1CC2 (stereo not drawn) [Compound 7]
0.0

**Q:** Quick one: Inhibition percentage against C. neoformans ATCC 32264 of CC(C)c1cc2c(c(OC(=O)CCCc3cn(CSc4ccccc4)nn3)c1OC(=O)CCCc1cn(CSc3ccccc3)nn1)C13CCCC(C)(C)C1CC2OC3=O (stereo not drawn) [Compound 18] ?
**A:** 0.0

###

List of Inhibition percentage against C. neoformans ATCC 32264 values.
Test system: C. neoformans ATCC 32264
RUN DESCRIPTION: Antifungal broth microdilution (CLSI M27-A3), growth inhibition
Format: cell-based, Cryptococcus neoformans
STUDY CONDITIONS: 125 μg∙mL^−1, 48 h
Description: The antifungal properties of compounds 1–24 against two clinical important fungal species, C. albicans ATCC 10231 and C. neoformans ATCC 32264 were investigated. Results were expressed as the percentages of inhibition of each fungus in the range 250–3.9 μg∙mL^−1 by using the standardized microbroth dilution method M-27A3 of Clinical and Laboratory Standards Institute which assures reliable and reproducible results. […]
Give just the numeric value; % need not be written.

Illustrative cases are given below, each with its answer.
COC(=O)C12CCCC(C)(C)C1CCc1cc(C(C)C)c(OC(=O)CCc3cn(Cc4ccccc4)nn3)c(OC(=O)CCc3cn(Cc4ccccc4)nn3)c12 (stereo not drawn)
38.3
COC(=O)C12CCCC(C)(C)C1CCc1cc(C(C)C)c(OC(=O)CCc3cn(Cc4ccc([N+](=O)[O-])cc4)nn3)c(OC(=O)CCc3cn(Cc4ccc([N+](=O)[O-])cc4)nn3)c12 (stereo not drawn)
22.0
CC(C)c1cc2c3c(c1OC(=O)CCCc1cn(CSc4ccccc4)nn1)OC(=O)C31CCCC(C)(C)C1CC2 (stereo not drawn)
22.1
CC(C)c1cc2c3c(c1OC(=O)CCc1cn(Cc4ccc(Br)cc4)nn1)OC(=O)[C@@]31CCCC(C)(C)[C@@H]1CC2
12.6
CC(C)c1cc2c(c(OC(=O)CCCc3cn(Cc4ccc(Br)cc4)nn3)c1OC(=O)CCCc1cn(Cc3ccc(Br)cc3)nn1)C13CCCC(C)(C)C1CC2OC3=O (stereo not drawn)
52.3
COC(=O)C12CCCC(C)(C)C1CCc1cc(C(C)C)c(OC(=O)CCCc3cn(Cc4ccc(Br)cc4)nn3)c(OC(=O)CCCc3cn(Cc4ccc(Br)cc4)nn3)c12 (stereo not drawn)
30.1

**Q:** Inhibition percentage against C. neoformans ATCC 32264 lookup needed for CC(C)c1cc2c(c(OC(=O)CCc3cn(Cc4ccc(Br)cc4)nn3)c1OC(=O)CCc1cn(Cc3ccc(Br)cc3)nn1)C13CCCC(C)(C)C1CC2OC3=O (stereo not drawn) , thanks.
**A:** 28.8

**Q:** Returns the measured Inhibition percentage against C. neoformans ATCC 32264 for the input molecule. Input: CC(C)c1cc2c(c(OC(=O)CCc3cn(CSc4ccccc4)nn3)c1OC(=O)CCc1cn(CSc3ccccc3)nn1)C13CCCC(C)(C)C1CC2OC3=O (stereo not drawn)
**A:** 11.4

**Q:** Fill in: Inhibition percentage against C. neoformans ATCC 32264 of COC(=O)C12CCCC(C)(C)C1CCc1cc(C(C)C)c(OC(=O)CCCc3cn(CSc4ccccc4)nn3)c(OC(=O)CCCc3cn(CSc4ccccc4)nn3)c12 (stereo not drawn) is ___
**A:** 42.9
